# assay.explanation: Phase 1 single ascending dose plasma pharmacokinetics in healthy volunteers
# Type: in vivo, human
# experimental.conditions: human, po, 1200 mg, Group 3, 1200 mg single oral dose, individual subjects, read-out: Tmax
quantity.name: Tmax (h)

INSERT INTO measurements (compound_structure, quantity_name, readout_unit, recorded_number) VALUES
  ('CC(=O)c1nn(CC(=O)N2C[C@H](F)C[C@H]2C(=O)Nc2cccc(Br)n2)c2ccc(-c3cnc(C)nc3)cc12', 'Tmax', 'h', 2.5);

----------
# assay.explanation: Ocular tissue distribution and pharmacokinetics, 7.5 and 15 mg/kg oral, pigmented Dutch Belted rabbits (Example 7)
# Type: in vivo
# experimental.conditions: Dutch Belted, rabbit, plasma, oral, […], DB rabbits, Day 1, […] single dose, 24 hr; read-out: Mean Plasma Concentration
quantity.name: concentration at 24 h

INSERT INTO measurements (compound, quantity_name, result) VALUES
  ('CC(=O)c1nn(CC(=O)N2C[C@H](F)C[C@H]2C(=O)Nc2cccc(Br)n2)c2ccc(-c3cnc(C)nc3)cc12 [Compound 1]', 'concentration at 24 h', '3.26 ng/mL');
